Target: human corticotropin-releasing factor 2a (CRF2a receptor) (human), Q13324
Sequence (Q13324 20-411): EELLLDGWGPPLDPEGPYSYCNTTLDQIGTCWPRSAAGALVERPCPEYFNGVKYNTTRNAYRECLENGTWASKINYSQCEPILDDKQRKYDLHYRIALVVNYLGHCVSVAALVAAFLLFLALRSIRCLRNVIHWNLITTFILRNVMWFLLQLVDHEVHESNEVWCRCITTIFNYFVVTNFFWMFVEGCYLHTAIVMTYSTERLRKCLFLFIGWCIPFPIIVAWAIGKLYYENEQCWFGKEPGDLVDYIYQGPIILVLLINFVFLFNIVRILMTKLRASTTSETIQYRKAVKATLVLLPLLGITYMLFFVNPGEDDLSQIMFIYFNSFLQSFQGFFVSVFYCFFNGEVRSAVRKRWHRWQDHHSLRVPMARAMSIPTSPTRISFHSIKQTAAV
Experiment: cell-based or functional assay
*1 amine or outer side, *2 acyl side, *3 side chain or, on linkers, in order; H or OH if unused. Where no end group is shown, it is not given here. Side-chain parts run from the residue outwards. [ ]: non-standard residue; d: D form. The star is where a group is joined. C18 diacid = O=C(O)CCCCCCCCCCCCCCCCC(=O)*; C16 diacid = O=C(O)CCCCCCCCCCCCCCC(=O)*; γGlu = O=C(O)[C@H](CCC(=O)[*:2])N[*:1]; αMeL = CC(C)C[C@](C)(N)C(=O)O; Pentanoyl = CCCCC(=O)*; AEEA = NCCOCCOCC(=O)O; Aib = CC(C)(N)C(=O)O
measured.metric: log10(EC50 [nM] (cAMP)) (log10 of the value in nM)
// stored as log10 of EC50 [nM] (cAMP) expressed in nM

Solved cases (2 shown):
Task item: Fill blank: measured log10(EC50 [nM] (cAMP)) of the binder Pentanoyl-VLSLD[dV]PIK[αMeL]K([AEEA-AEEA-γGlu-C18 diacid])KILLEQEKQKKQREQAETN[Aib]QILAQV-NH2 [SEQ ID NO 123] is ____.
Reply: -0.15

Task item: What log10(EC50 [nM] (cAMP)) value was documented for this binder, IVLSLD[dV]PIKLK([AEEA-AEEA-γGlu-C16 diacid])QILLKQERQKKQREQAEKNKQILEQV-NH2 [SEQ ID NO 148] ?
Reply: -0.19

---
Task item: Given IVLSLD[dV]PIKLK([AEEA-AEEA-γGlu-γGlu-C16 diacid])QILLKQERQKKQREQAEKNKQILEQV-NH2 [SEQ ID NO 146] , state its recorded log10(EC50 [nM] (cAMP)).
Reply: -1.00

Each recorded value in this set is attributed to patent US20260001928A1.
